Values were extracted from patent US20080064052A1.

Target: T1, human EphB4 ephrin-binding domain, EphB4 (17-196) (human, UniProt P54760 17-196)
T1 sequence: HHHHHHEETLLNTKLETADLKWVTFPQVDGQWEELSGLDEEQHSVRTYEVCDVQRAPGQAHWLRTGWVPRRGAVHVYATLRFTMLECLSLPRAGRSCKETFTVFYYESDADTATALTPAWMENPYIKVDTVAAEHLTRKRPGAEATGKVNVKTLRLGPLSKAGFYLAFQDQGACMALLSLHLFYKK
Assay: ITC at 25 °C, peptide injected into human EphB4 (17-196)
quantity.kind: ΔH (kcal/mol)
Answers are plain numbers, in kcal/mol.

Examples with their reported ΔH follow.
{"binder": "NYLFSPNGPIARAW [NYLF-RAW peptide (NYLFSPNGPIARAW)]", "ΔH [kcal/mol]": -15.5}
{"binder": "TNYLFSPNGPIARAW (Synthetic 15-mer (Biopeptide, Inc.); Peptide positions are printed as P1 to P15; also called antagonistic peptide) [TNYL-RAW peptide (TNYLFSPNGPIARAW)]", "ΔH [kcal/mol]": -14.7}
{"binder": "LFSPNGPIARAW (TNYL-RAW without Thr-P1, Asn-P2 and Tyr-P3) [LFSP-RAW peptide (LFSPNGPIARAW)]", "ΔH [kcal/mol]": -5.3}

Read the next record carefully.
Lab note: measured ΔH of YLFSPNGPIARAW [YLFS-RAW peptide (YLFSPNGPIARAW)] was -13.8
